Every entry's value here was drawn from PubChem BioAssay (NCI).

Test system: MOLT-4 leukemia
Test: NCI-60 one-dose screen, 48 h (100 = growth as untreated, 0 = no growth, -100 = all killed)
Settings: 10 µM unless noted
The panel holds about 83,000 compounds, 20% with a hit somewhere; the sample as a whole holds those more often.
Recorded growth values for a group of molecules are listed next.
Kindly answer with a numeric value in %, unit omitted.

Known results for molecules:
{"columns": ["Molecule", "Measure Unit", "growth"],
 "data": [
  ["CCN(CC)Cc1cc(Nc2nc(NC3CCC(N(C)C)CC3)c3ccccc3n2)ccc1OC (stereo not given)", "%", 48.2],
  ["COc1ccc2nc(NC(=O)/C(=C/c3cc(OC)c(OC)c(OC)c3)c3ccc(OC)c(OC)c3)sc2c1", "%", 83.7],
  ["CCN(CC)c1ccc2nc3c4ccccc4c(=O)cc-3n(-c3ccccc3)c2c1", "%", 2.41],
  ["COc1ccc2[nH]c(O)c(/C=c3/ccc4c(c3)N=C(c3ccc(F)cc3)N=4)c2c1", "%", 67.7],
  ["COc1ccc2c(c1)N(CCO)C1=C(C(=O)OC1)C2c1cccc(Br)c1 (stereo not given)", "%", 13.9]
]}

Can you share its growth? I mean this molecule: COc1ccccc1/C=N\NC(=S)Nc1ccc(F)cc1
57.3

Similarly, CSC(=S)N/N=C(\C)c1ccccn1 ?
0.153

Try O=C(c1ccc(C(F)(F)F)c(Cl)c1)N(Cc1ccc(Cl)cc1)c1ccc(-c2cc(C(F)(F)F)[nH]n2)c(O)c1 next.
9.19

Please give the result for CNCCCNc1ccnc2cc(Cl)ccc12 too.
2.58

Again, but for COc1c(B(O)O)cccc1-c1nc2c(F)cc3n[nH]c(C)c3c2c2c1CCCC2
28.7

====

Test system: NCI-H522 lung
Assay: NCI-60 one-dose screen, 48 h
Details: 10 µM unless noted
About 83,000 compounds went through this panel and 20% of them were active in at least one assay; those are over-represented in the sample as a whole. The source made the active and inactive calls. Rule for the calls: active = growth percent below 10; inactive = the rest.
Answer with one of the outcomes given here: active, inactive

These solved cases illustrate the format of a correct answer.
{"columns": ["Molecule", "Class Name"],
 "data": [
  ["NC(N)=N/N=C\\c1ccc(OCc2ccccc2)cc1", "inactive"],
  ["CCCCCCCCCCCCCCC(C(=O)OCC)C(=O)OCC", "inactive"],
  ["Cc1ccc(Nc2nc(NCCO)c3ccccc3n2)cc1C", "active"]
]}

Per the assay record, what outcome was assigned to CC1C2CCC(C2)C1COCCOCCO (stereo not drawn) ?
inactive

Also, O=C(CI)NCCNc1cccc2c(S(=O)(=O)O)cccc12 please.
inactive

Then C/C(=N\OC(=O)Nc1ccccc1)c1ccccc1 ?
inactive

Note, next up: O=C(Nc1ccc(Oc2ccc(NC(=O)Nc3ccccc3Cl)cc2)cc1)Nc1ccccc1Cl
active

What about COc1c(B(O)O)cccc1-c1nc2ccc3[nH]ncc3c2c2c1CCCC2 ?
inactive

SCc1ccc(CS)cc1 , same question.
inactive

Input COc1ccc(C(=O)c2c(N)nc3n2CCCC3)cc1OC
inactive

What about this molecule? N[C@@H](CO)C(=O)O
inactive

And CS(=O)(=O)Nc1cc(-c2cc3ncc(C#N)c(Nc4ccc(Oc5ccccc5)c(Cl)c4)c3s2)cnc1Cl ?
inactive

Follow-up item: CNC(=O)c1ccccc1Sc1ccc2c(/C=C/c3ccccn3)n[nH]c2c1
inactive

O=C1Nc2ccccc2/C1=C/c1c[nH]c2ccccc12 , same question.
inactive

What do we get for COc1cc2c(cc1C)NC(=O)/C2=C\c1c[nH]c2ccccc12 ?
inactive

Same question for Oc1ccc(CCCCCCc2ccc(O)cc2)cc1 please.
inactive

Then Cc1nn(-c2ccc(Cl)cc2)c(=O)n1CCN1CCOCC1 ?
inactive
